TGI listing for selected compounds.
testName: Antiproliferative activity against human HCT15 cells assessed as growth inhibition after 48 hrs by sulforhodamine B assay
Type: functional
testContext: HCT-15, 48 h

compound | relationSign | TGI, µM
CNC(=O)c1cc(Oc2ccc3nc(NC(=O)Nc4ccc(Cl)c(Cl)c4)sc3c2)ccn1 | > | 100
CNC(=O)c1cc(Oc2ccc(NC(=O)Nc3ccc(Cl)c(C(F)(F)F)c3)cc2)ccn1 [SORAFENIB] | = | 12.6
CNC(=O)c1cc(Oc2ccc3nc(NC(=O)Nc4cc(C(F)(F)F)cc(C(F)(F)F)c4)sc3c2)ccn1 | = | 3.31
CNC(=O)c1cc(Oc2ccc3nc(NC(=O)c4cc(C(F)(F)F)cc(C(F)(F)F)c4)sc3c2)ccn1 | = | 25.1

FYI, the data here is from ChEMBL document CHEMBL3797052.
